Target: VEGF receptors on HUVEC (VEGFR2/KDR) (Homo sapiens, UniProt P35968 P35968:20-1356)
Sequence (P35968 20-1356, one chain of several): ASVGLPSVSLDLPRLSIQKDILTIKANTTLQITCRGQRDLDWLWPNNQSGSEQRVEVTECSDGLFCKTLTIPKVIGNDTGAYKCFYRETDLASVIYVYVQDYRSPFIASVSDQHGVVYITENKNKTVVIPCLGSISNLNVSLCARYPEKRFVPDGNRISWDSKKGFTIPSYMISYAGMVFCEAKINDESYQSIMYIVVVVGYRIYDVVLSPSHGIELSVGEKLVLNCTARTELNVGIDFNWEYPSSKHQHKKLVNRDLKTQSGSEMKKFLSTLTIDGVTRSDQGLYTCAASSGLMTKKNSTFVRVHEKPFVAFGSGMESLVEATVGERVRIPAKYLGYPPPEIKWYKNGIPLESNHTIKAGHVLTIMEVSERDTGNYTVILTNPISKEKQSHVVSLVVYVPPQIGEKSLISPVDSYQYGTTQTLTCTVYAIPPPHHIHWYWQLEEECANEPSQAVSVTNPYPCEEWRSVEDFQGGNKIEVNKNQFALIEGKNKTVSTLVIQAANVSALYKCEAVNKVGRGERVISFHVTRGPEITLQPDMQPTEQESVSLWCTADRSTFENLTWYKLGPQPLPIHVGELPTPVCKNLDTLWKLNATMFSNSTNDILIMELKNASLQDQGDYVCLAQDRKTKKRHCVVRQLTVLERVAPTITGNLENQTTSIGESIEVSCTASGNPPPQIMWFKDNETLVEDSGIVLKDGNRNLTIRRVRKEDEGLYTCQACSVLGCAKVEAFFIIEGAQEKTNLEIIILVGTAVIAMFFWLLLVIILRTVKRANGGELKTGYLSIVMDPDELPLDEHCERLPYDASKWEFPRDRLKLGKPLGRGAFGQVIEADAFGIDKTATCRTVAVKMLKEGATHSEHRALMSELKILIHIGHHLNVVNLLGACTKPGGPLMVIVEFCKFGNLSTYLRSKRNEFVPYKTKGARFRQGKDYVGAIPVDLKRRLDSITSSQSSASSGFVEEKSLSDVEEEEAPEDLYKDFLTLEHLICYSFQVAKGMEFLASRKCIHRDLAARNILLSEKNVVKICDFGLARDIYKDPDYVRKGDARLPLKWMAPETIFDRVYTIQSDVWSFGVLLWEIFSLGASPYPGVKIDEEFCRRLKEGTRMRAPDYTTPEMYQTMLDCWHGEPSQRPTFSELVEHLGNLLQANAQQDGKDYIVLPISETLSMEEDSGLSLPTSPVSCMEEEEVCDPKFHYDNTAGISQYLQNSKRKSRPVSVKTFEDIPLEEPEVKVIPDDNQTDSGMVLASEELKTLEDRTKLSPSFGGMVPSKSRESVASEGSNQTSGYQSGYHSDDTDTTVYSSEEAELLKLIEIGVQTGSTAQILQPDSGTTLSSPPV
Experiment: competition; inhibition of 125I-VEGF-165 binding to HUVEC, DPBS with Ca, Mg, room temperature
Procedure: We next examined whether a group of representative aptamers was able to inhibit the binding of [125]I-VEGF-165 to VEGF receptors expressed on HUVECs. Cells were seeded in 96-well plates at a density of about 10,000 cells/well and maintained until confluent. Culture medium was then replaced with growth factor deficient medium (MEM, 5% heat inactivated fetal bovine serum, 1 µg/ml heparin) for 3–4 hours. […]
pIC50: −log10 of the molar value.
readoutType: pIC50

In [3]: df
Out[3]:
                                     binder  readouttype  resultvalue
0  K10 (ssRNA, 2'-F pyrimidines) RNA: GGGAGGACGAUGCGGUUGAUCGAGGUUCUAAGGCCUAUUUCCUGACUUUCUCCCCCAGACGACUCGCCCGA        pIC50         9.00
